# Tested on: SK-MEL-28 melanoma
# methodDescription: NCI tumour cell line growth inhibition, 48 h
The reader will find reported GI50 values listed item by item below.
measurementType: GI50

1. C[C@@H](Oc1ccc2[nH]nc(/C=C/c3cnn(CCO)c3)c2c1)c1c(Cl)cncc1Cl    1.72 µM
2. OCC#Cc1ccccc1C#Cc1ccc(C#Cc2ccccc2C#CCO)s1    20.5 µM
3. CC1SC(c2c(Cl)cccc2Cl)N(NC(=O)C(O)c2ccccc2)C1=O (centres undefined)    > 100 µM
4. N[C@@H]1CCCC[C@@H]1N.O=C([O-])CN(CP(=O)([O-])[O-])CP(=O)([O-])[O-].[Pt+2]    > 100 µM
5. CCCN1C(=O)CSC1=Nc1ccc2cc3ccc(N=C4SCC(=O)N4CCC)cc3nc2c1    > 100 µM
6. COc1ccc(CC(NC(=O)[C@H](C)NC(=O)CN2CCOCC2)C(=O)N[C@@H](Cc2ccccc2)C(=O)[C@@]2(C)CO2)cc1 (some centres undefined)    0.215 µM
7. C1=C(c2ccccc2)C(c2ccc(OCCN3CCCCC3)cc2)Oc2ccccc21 (centres undefined)    1.18 µM
8. O=[N+]([O-])[O-].O=[N+]([O-])[O-].[Au].[Au].c1ccc([P-]c2ccccc2)cc1.c1ccc([P-]c2ccccc2)cc1    29.3 µM
9. c1ccc2cc(Cn3c[n+](Cc4ccc5ccccc5c4)c4ccccc43)ccc2c1    1.52 µM

====

# Tested on: SF-268 CNS
# methodDescription: NCI tumour cell line growth inhibition, 48 h
measurementType: TGI

1. NC(=S)N/N=c1\cc(C(=O)Nc2ccc([N+](=O)[O-])cc2[N+](=O)[O-])oc2ccccc12    > 100 µM
2. O=C1CC(c2ccc(Cl)cc2)C2(C(=O)NC(=O)NC2=O)C(c2ccc(Cl)cc2)C1 (stereo not drawn)    > 75 µM
3. Cc1cccc2c1O/C(=C\c1ccc([N+](=O)[O-])o1)C2=O    3.94 µM

====

# Tested on: NCI-H522 lung
# methodDescription: NCI tumour cell line growth inhibition, 48 h
The reader will find reported TGI values listed item by item below.
measurementType: TGI (µM)

1. CC(=O)/C=C/C1=C(c2cccs2)c2ccccc2CC1    66.8
2. Cc1cc(C)n(C(=O)c2nn(-c3ccc(Cl)cc3)cc2O)n1    50.7
3. CN1CCN(CCNc2ccc(CO)c3sc4ccccc4c(=O)c23)CC1    8.89
4. NC(=S)N1N=C(c2ccccc2O)CC1c1ccccc1 (stereo not given)    18.8
5. O=[N+]([O-])[O-].O=[N+]([O-])[O-].[Au].[Au].c1ccc([P-]c2ccccc2)cc1.c1ccc([P-]c2ccccc2)cc1    46.3
6. COc1ccc(Cl)cc1NC(=O)c1cccc([N+](=O)[O-])c1O    38.6

====

# System: K-562 leukemia
# methodDescription: NCI tumour cell line growth inhibition, 48 h
measurementType: TGI (µM)

1) O=[N+]([O-])/C=C\c1c[nH]c2ccc(OCc3ccccc3)cc12    6.88
2) Cc1ccc2c(c1)O/C(=C\c1ccc([N+](=O)[O-])o1)C2=O    2.04
3) O=C1/C(=C/c2ccccc2)CCc2ccccc21    20.5

====

# System: RPMI-8226 leukemia
# methodDescription: NCI tumour cell line growth inhibition, 48 h
The reader will find reported TGI values listed item by item below.
measurementType: TGI

1. Cc1ccccc1NC(=O)CC(=O)N1N=C(N2c3ccccc3Sc3ccccc32)CC1c1ccccc1 (stereo not given)    > 100 µM
2. CC(=O)OC1CCC2(C)C(=CCC3C4CCC5(OC6CC(C)CN(C(C)=O)C6C5C)C(C)=C4C(=O)C32)C1 (stereo not given)    37.6 µM
3. CC(C)(CC#N)c1cc(CC(C)(C)c2cc(CC(C)(C)c3cc(C(C)(C)C4(C)OCCO4)no3)no2)no1    > 100 µM
4. Cc1ccc(CC(Cc2ccc(C)cc2C(=O)O)C(=O)O)cc1 (stereo not given)    > 100 µM
5. COc1ccc(NC(=O)CC(=O)N/N=C/c2ccc(N(CCC#N)S(=O)(=O)c3ccccc3)cc2)cc1    > 100 µM
6. Nc1ccc(-c2nc3cc(F)ccc3s2)cc1CO    > 100 µM
7. C(=C\c1nccc2c1[nH]c1ccccc12)/c1ccccc1    3.92 µM
8. COc1ccc(-c2nnc(N3CCN(C(=O)CN4CCN(c5ccc(Cl)cc5)CC4)CC3)nc2-c2ccc(OC)cc2)cc1    > 100 µM
9. CCOC(=O)C1=COC(C)(c2ccccc2)CC1=O (stereo not given)    > 100 µM
10. CCCSc1ccc2[nH]c(N3C(=O)/C(=C/c4cc(OC)c(OC)c(OC)c4)N=C3c3ccccc3)cc2c1    27.1 µM
11. CC(=O)NC(CCCNC(=O)NCCCl)C(=O)NCc1ccccc1 (stereo not given)    > 100 µM
12. N#C/C(N)=C(\C#N)N=Cc1csc2ccccc12    > 100 µM
13. CC1(C)N=C(C(=O)c2ccccc2)N(O)C1(O)c1ccccc1 (stereo not given)    > 100 µM
14. COC(=O)C1=C(O)CCCC(CCC(C)=O)=C1    > 100 µM
15. CC1SC(c2c(Cl)cccc2Cl)N(NC(=O)C(O)c2ccccc2)C1=O (stereo not given)    > 100 µM
16. CC(C)(C)[Si](C)(C)OCC1OC(n2cnc3c(N)ncnc32)CC1OS(C)(=O)=O (stereo not given)    > 100 µM
17. CCOC(=O)N[C@H]1CCc2c(Br)c(OC)c(OC)c(OC)c2-c2ccc(SC)c(=O)cc21    > 33.7 µM
18. N[C@@H]1CCCC[C@@H]1N.O=C([O-])CN(CP(=O)([O-])[O-])CP(=O)([O-])[O-].[Pt+2]    > 100 µM
19. COc1ccc2c(c1)CC[C@@H]1C2CC[C@]2(C)C(=O)N(N)C(=O)CC12 (stereo not given in full)    > 100 µM
20. CCCN1C(=O)CSC1=Nc1ccc2cc3ccc(N=C4SCC(=O)N4CCC)cc3nc2c1    > 100 µM

====

# System: OVCAR-8 ovarian
# methodDescription: NCI tumour cell line growth inhibition, 48 h
measurementType: GI50

1. O=C(NNS(=O)(=O)c1ccc(F)cc1)c1cccnc1Nc1ccc(Cl)cc1Cl    26.9 µM
2. Cc1cccc2c1O/C(=C\c1ccc([N+](=O)[O-])o1)C2=O    0.941 µM
3. [C-]#[N+][C@]12C(=O)[C@H](CCC1(C)C)C(C)(C)[C@H]1C(=O)N(C)c3cccc2c31    13.8 µM
4. CO[C@@]12C[C@H]3[C@@H]([C@@H](O)[C@@H](OC(=O)/C=C/c4ccccc4)[C@@]4(O)C(C)(C)CCC[C@]34C)[C@@H](C)C1=CC(=O)O2    5.24 µM
5. O=C(Nc1cccc(O)c1)c1cccc(NC2=C(Cl)C(=O)N(Cc3ccccc3)C2=O)c1    13.1 µM
6. COc1ccc(CC(NC(=O)[C@H](C)NC(=O)CN2CCOCC2)C(=O)N[C@@H](Cc2ccccc2)C(=O)[C@@]2(C)CO2)cc1 (stereo partly drawn)    0.342 µM
7. COc1ccc(/C=C/C(=O)c2cc3c(N)c(C(=O)Nc4ccccc4C)sc3nc2C)cc1    1.14 µM
8. Oc1c(I)cc(-c2nc3ccccc3s2)cc1CN(Cc1ccccn1)Cc1ccccn1    0.335 µM

====

# Test system: MCF7 breast
# methodDescription: NCI tumour cell line growth inhibition, 48 h
The reader will find reported TGI values listed item by item below.
measurementType: TGI

1) CCNc1nc2c(ncn2C2CC(O)C(COP(=O)(O)O)O2)c(=O)[nH]1 (centres undefined)    > 100 µM
2) CN(C)CC1(Cc2ccccc2)CCC(Cc2ccccc2)C1=O (centres undefined)    24.9 µM
3) CCN(CC)c1ccc2cc(C(=O)Nc3nc(C45CC6CC(CC(C6)C4)C5)cs3)c(=O)oc2c1    > 100 µM
4) Nc1ccc(Oc2ccc(C34CC5CC(C3)CC(c3ccc(Oc6ccc(N)cc6)cc3)(C5)C4)cc2)cc1    21.6 µM
5) COc1cc(C2=NN(c3ccc(S(N)(=O)=O)cc3)C(c3ccc(Cl)cc3)C2)cc(OC)c1OC (centres undefined)    > 100 µM
6) NC(=S)N1N=C(c2ccccc2O)CC1c1ccccc1 (centres undefined)    20.8 µM
7) CCCCCOC(=O)c1cc2cc(CCl)ccc2oc1=O    > 56.9 µM
8) CC(C)(C)OC(=O)CN1CCc2c(sc3ncnc(N/N=C/c4cccc5ccccc45)c23)C1    2.85 µM
9) Cc1nc2ncn3c(c-2c1Cc1ccccc1)NC=C(O)N3    > 100 µM
10) CCOC(=O)CCC(NC(=O)c1ccc(Nc2cnc3ccc(C(F)(F)F)cc3n2)cc1)C(=O)OCC (centres undefined)    > 100 µM
11) COc1ccc([C@]23CCN(S(=O)(=O)c4ccc(C)cc4)[C@H]2[C@H](CO)C2(CC3)OCC(C)(C)CO2)cc1OC    > 100 µM
12) COc1cccc(NC(=O)CC(=O)N2N=C(C)C(N=Nc3ccc(S(=O)(=O)CCOS(=O)(=O)O)cc3)C2=O)c1 (centres undefined)    5.71 µM
13) CC(C)(C)[Si](C)(C)OCC1OC(n2cnc3c(N)ncnc32)CC1OS(C)(=O)=O (centres undefined)    > 100 µM
14) CCCN1C(=O)CSC1=Nc1ccc2cc3ccc(N=C4SCC(=O)N4CCC)cc3nc2c1    > 100 µM
15) COc1cc2c(c(OC)c1OC)C(=O)[C@H](Br)[C@H]2NC(=O)NCCCl    > 100 µM
16) CCCSc1ccc2[nH]c(N3C(=O)/C(=C/c4cc(OC)c(OC)c(OC)c4)N=C3c3ccccc3)cc2c1    > 37.5 µM
17) O=C(Nc1ccc(Cl)cc1)c1cc(S(=O)(=O)Nc2nnc(-c3ccccc3)c(-c3ccccc3)n2)c(SCc2ccccc2)cc1Cl    > 92 µM
18) CC1(C)N=C(C(=O)c2ccccc2)N(O)C1(O)c1ccccc1 (centres undefined)    > 100 µM
19) O=S(=O)(NCCNc1cc(-c2cn(-c3ccccc3)nc2-c2cccc(O)c2)ccn1)c1ccc(Cl)cc1    9.43 µM
